target: Adenosine receptors; A1 & A3 (Rattus norvegicus) (UniProt P25099+P28647); assay: Ratio of the binding affinities against rat brain A1 and A3 receptors, KiA1/KiA3.
Sequence (P25099 whole entry, looked up, one chain of several): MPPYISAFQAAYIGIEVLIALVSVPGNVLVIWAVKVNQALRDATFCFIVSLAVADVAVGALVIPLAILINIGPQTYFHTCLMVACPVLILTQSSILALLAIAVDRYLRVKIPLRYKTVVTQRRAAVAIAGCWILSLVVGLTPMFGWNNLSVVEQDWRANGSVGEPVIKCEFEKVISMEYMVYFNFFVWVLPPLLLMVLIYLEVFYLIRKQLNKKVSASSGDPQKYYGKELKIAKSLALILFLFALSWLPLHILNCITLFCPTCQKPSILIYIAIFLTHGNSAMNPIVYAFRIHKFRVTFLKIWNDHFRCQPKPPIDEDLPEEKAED
Label scheme, based on Ratio: lowest (below 0.1), middle (0.1 to below 0.6), highest (0.6 or more)

[
  {
    "structureNotation": "CSc1nc(NCc2cccc(I)c2)c2ncn(C)c2n1",
    "assignedCategory": "highest"
  },
  {
    "structureNotation": "CNC(=O)[C@H]1C[C@@H](n2cnc3c(NCc4cccc(I)c4)ncnc32)[C@H](O)[C@@H]1O",
    "assignedCategory": "highest"
  },
  {
    "structureNotation": "CNC(=O)[C@@H]1C[C@@H](OC(C)=O)[C@H](n2cnc3c(NCc4cccc(I)c4)nc(Cl)nc32)O1",
    "assignedCategory": "highest"
  },
  {
    "structureNotation": "OC[C@@H](O)Cn1cnc2c(NCc3cccc(I)c3)ncnc21",
    "assignedCategory": "middle"
  },
  {
    "structureNotation": "CSc1nc(NCc2cccc(I)c2)c2ncn(C[C@H](O)CO)c2n1",
    "assignedCategory": "middle"
  },
  {
    "structureNotation": "Cn1cnc2c(NCc3cccc(I)c3)nc(NN)nc21",
    "assignedCategory": "lowest"
  },
  {
    "structureNotation": "CNC(=O)[C@@H]1C[C@@H](OS(C)(=O)=O)[C@H](n2cnc3c(NCc4cccc(I)c4)nc(Cl)nc32)O1",
    "assignedCategory": "middle"
  },
  {
    "structureNotation": "CNC(=O)[C@@H]1CC[C@H](n2cnc3c(NCc4ccccc4)nc(Cl)nc32)O1",
    "assignedCategory": "middle"
  },
  {
    "structureNotation": "CNC(=O)[C@@H]1C[C@@H](O)[C@H](n2cnc3c(NCc4cccc(I)c4)nc(Cl)nc32)O1",
    "assignedCategory": "highest"
  },
  {
    "structureNotation": "COc1nc(NCc2cccc(I)c2)c2ncn(C)c2n1",
    "assignedCategory": "lowest"
  },
  {
    "structureNotation": "Cn1cnc2c(NC3CCCC3)ncnc21",
    "assignedCategory": "lowest"
  },
  {
    "structureNotation": "Cn1cnc2c(NCc3cccc(I)c3)nc(N)nc21",
    "assignedCategory": "middle"
  },
  {
    "structureNotation": "Cn1cnc2c(NCc3cccc(I)c3)nc(Cl)nc21",
    "assignedCategory": "lowest"
  },
  {
    "structureNotation": "CNC(=O)[C@H]1O[C@@H](n2cnc3c(NCc4cccc(I)c4)nc(Cl)nc32)[C@@H]2OC(=S)O[C@@H]21",
    "assignedCategory": "highest"
  },
  {
    "structureNotation": "Cn1cnc2c(NCc3cccc(I)c3)ncnc21",
    "assignedCategory": "middle"
  },
  {
    "structureNotation": "CC(C)[Si]1(C(C)C)OC[C@H]2O[C@@H](n3cnc4c(NCc5cccc(I)c5)nc(Cl)nc43)[C@H](O)[C@@H]2O[Si](C(C)C)(C(C)C)O1",
    "assignedCategory": "highest"
  },
  {
    "structureNotation": "OCCn1cnc2c(NCc3cccc(I)c3)ncnc21",
    "assignedCategory": "middle"
  },
  {
    "structureNotation": "CNC(=O)[C@@H]1C[C@H](N=[N+]=[N-])[C@H](n2cnc3c(NCc4cccc(I)c4)nc(Cl)nc32)O1",
    "assignedCategory": "lowest"
  }
]

----------
target: Adenosine receptor A2a and A3 (Rattus norvegicus) (UniProt P30543+P28647); experiment: Ratio of the binding affinities against rat brain A2a and A3 receptors, KiA2a/KiA3.
Sequence (P30543 whole entry, looked up, one chain of several): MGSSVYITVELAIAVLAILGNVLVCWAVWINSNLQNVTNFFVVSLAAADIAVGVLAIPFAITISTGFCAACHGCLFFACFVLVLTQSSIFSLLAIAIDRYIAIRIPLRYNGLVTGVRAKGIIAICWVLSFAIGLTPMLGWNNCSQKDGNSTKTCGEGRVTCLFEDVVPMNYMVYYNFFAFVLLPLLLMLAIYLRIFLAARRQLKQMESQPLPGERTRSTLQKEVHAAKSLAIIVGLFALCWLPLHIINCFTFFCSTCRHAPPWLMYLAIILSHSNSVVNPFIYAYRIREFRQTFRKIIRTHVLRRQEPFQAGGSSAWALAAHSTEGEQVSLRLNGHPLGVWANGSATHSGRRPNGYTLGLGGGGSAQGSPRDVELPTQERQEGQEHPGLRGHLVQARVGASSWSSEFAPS
Examples of compounds with documented Ratio follow.

[
  {
    "structureNotation": "CNC(=O)[C@@H]1CC[C@H](n2cnc3c(NCc4ccccc4)nc(Cl)nc32)O1",
    "Ratio": 7.1
  },
  {
    "structureNotation": "Cn1cnc2c(NCc3cccc(I)c3)nc(Cl)nc21",
    "Ratio": 0.053
  },
  {
    "structureNotation": "Cn1cnc2c(NCc3cccc(I)c3)nc(NN)nc21",
    "Ratio": 0.18
  },
  {
    "structureNotation": "CSc1nc(NCc2cccc(I)c2)c2ncn(C[C@H](O)CO)c2n1",
    "Ratio": 9.2
  },
  {
    "structureNotation": "CNC(=O)[C@@H]1C[C@@H](F)[C@H](n2cnc3c(NCc4cccc(I)c4)nc(Cl)nc32)O1",
    "Ratio": 5.5
  }
]

----------
target: Adenosine receptor A2a and A3 (Rattus norvegicus) (UniProt P30543+P28647); assay: Ratio of the binding affinities against rat brain A2a and A3 receptors, KiA2a/KiA3.
Label Met when Ratio is at or above 5; otherwise label Not met.

[
  {
    "molecule": "N#CCCCn1cnc2c(NCc3cccc(I)c3)ncnc21",
    "assignedCategory": "Not met"
  },
  {
    "molecule": "CNC(=O)[C@@H]1C[C@H](N=[N+]=[N-])[C@H](n2cnc3c(NCc4cccc(I)c4)nc(Cl)nc32)O1",
    "assignedCategory": "Not met"
  },
  {
    "molecule": "Cn1cnc2c(NCc3cccc(I)c3)ncnc21",
    "assignedCategory": "Not met"
  },
  {
    "molecule": "CNc1nc(NCc2cccc(I)c2)c2ncn(C)c2n1",
    "assignedCategory": "Not met"
  },
  {
    "molecule": "CNC(=O)[C@@H]1C[C@@H](O)[C@H](n2cnc3c(NCc4cccc(I)c4)nc(Cl)nc32)O1",
    "assignedCategory": "Met"
  },
  {
    "molecule": "CNC(=O)[C@@H]1C[C@@H](OS(C)(=O)=O)[C@H](n2cnc3c(NCc4cccc(I)c4)nc(Cl)nc32)O1",
    "assignedCategory": "Met"
  },
  {
    "molecule": "Cn1cnc2c(NCc3cccc(I)c3)nc(N)nc21",
    "assignedCategory": "Not met"
  },
  {
    "molecule": "CC(O)[C@@H]1O[C@@H](n2cnc3c(N)ncnc32)[C@H](O)[C@@H]1O (some centres undefined)",
    "assignedCategory": "Not met"
  }
]

----------
Molecular target: Adenosine receptor A3 (Rattus norvegicus) (UniProt P28647)
Sequence (whole entry): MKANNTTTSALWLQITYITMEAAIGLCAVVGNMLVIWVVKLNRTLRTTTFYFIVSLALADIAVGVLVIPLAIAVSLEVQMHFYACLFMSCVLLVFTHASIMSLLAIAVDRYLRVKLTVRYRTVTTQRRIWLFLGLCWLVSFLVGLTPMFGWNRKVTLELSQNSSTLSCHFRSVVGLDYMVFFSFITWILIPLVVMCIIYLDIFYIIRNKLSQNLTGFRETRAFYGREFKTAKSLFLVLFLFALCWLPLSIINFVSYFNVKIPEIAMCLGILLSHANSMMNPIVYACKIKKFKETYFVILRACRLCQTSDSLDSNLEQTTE
Assay: Ability to inhibit the adenylyl cyclase in CHO cells stably transfected with rat Adenosine A3 receptor at the concentration of 100 uM
Assay type: cell-based
Examples of compounds with documented inhibition follow.
experimentalEndpoint: inhibition (%)

[
  {
    "structureNotation": "CSc1nc(NCc2cccc(I)c2)c2ncn(C)c2n1",
    "recordedMeasurement": 19.5
  },
  {
    "structureNotation": "CC(C)[Si]1(C(C)C)OC[C@H]2O[C@@H](n3cnc4c(NCc5cccc(I)c5)nc(Cl)nc43)[C@H](O)[C@@H]2O[Si](C(C)C)(C(C)C)O1",
    "recordedMeasurement": 8.7
  },
  {
    "structureNotation": "CNC(=O)[C@@H]1C[C@@H](F)[C@H](n2cnc3c(NCc4cccc(I)c4)nc(Cl)nc32)O1",
    "recordedMeasurement": 11.2
  },
  {
    "structureNotation": "CNC(=O)[C@H]1O[C@@H](n2cnc3c(NCc4cccc(I)c4)ncnc32)[C@H](O)[C@@H]1O",
    "recordedMeasurement": 44.4
  },
  {
    "structureNotation": "CNC(=O)[C@@H]1C[C@H](N=[N+]=[N-])[C@H](n2cnc3c(NCc4cccc(I)c4)nc(Cl)nc32)O1",
    "recordedMeasurement": 27.8
  }
]

----------
target: Adenosine receptors; A1 & A3 (Rattus norvegicus) (UniProt P25099+P28647); experiment: Ratio of the binding affinities against rat brain A1 and A3 receptors, KiA1/KiA3.

[
  {
    "structureNotation": "Cn1cnc2c(NCc3cccc(I)c3)nc(Sc3ccncc3)nc21",
    "Ratio": 0.0051
  },
  {
    "structureNotation": "CNc1nc(NCc2cccc(I)c2)c2ncn(C)c2n1",
    "Ratio": 0.67
  },
  {
    "structureNotation": "N#CCCCn1cnc2c(NCc3cccc(I)c3)ncnc21",
    "Ratio": 0.032
  },
  {
    "structureNotation": "CNC(=O)[C@@H]1C[C@@H](F)[C@H](n2cnc3c(NCc4cccc(I)c4)nc(Cl)nc32)O1",
    "Ratio": 0.08
  }
]
